molecular target: BRD4 BD2 (Homo sapiens, UniProt O60885, Y97A); construct: BRD4 (1-477) (Y97A) and (Y390A); made in house; host or cells: E. coli (pET15b vector); assay: BRD4 BD2 TR-FRET competition assay; format: binding; conditions: BRD4 BD2 TR-FRET; read-out: pIC50 in the BRD4 BD2 assay (converted)
METRIC_NAME: IC50

Guide cases for IC50, answers given:
COMPOUND	IC50
CNC(=O)c1cc(C(=O)NC2[C@H]3C[C@H](O)C[C@@H]23)n([C@H](C)c2cccc(C(F)(F)F)c2)n1 (stereo partly shown) [Example 241]	1000 to 10000 nM
CNC(=O)c1cc(C(=O)N[C@H]2[C@@H]3C[C@H](O)C[C@@H]32)n([C@H](C)c2cccc(C(F)(F)F)c2)n1 [Example 238]	1000 to 10000 nM
CNC(=O)c1cc(C(=O)N[C@H]2[C@@H]3COC[C@@H]32)n([C@@H](C)c2ccccc2)n1 [Example 1]	63.1 nM

Task: Entry under review: CNC(=O)c1cc(C(=O)N[C@H]2[C@@H]3COC[C@@H]32)n([C@H](C)c2cccc3[nH]ccc23)n1 [Example 132] . Reported IC50?
Result: 1000 to 10000 nM
